ASSAY_TARGET: DNA-binding transcriptional activator DevR/DosR (Mycobacterium tuberculosis, UniProt P9WMF9)
MEASUREMENT_NOTES: Inhibition of DevR region-dependent hspX promoter activity in Mycobacterium tuberculosis H37Rv after 48 hrs by GFP reporter gene assay
pIC50: −log10 of the molar value.
MEASUREMENT_KIND: pIC50

I have this compound here, COc1cc(NC(=O)c2ccc(-c3cc4ccccc4oc3=O)cc2)ccc1NC(=O)c1ccccc1Cl , and I need its recorded pIC50.
> 3.90

---

So I've got a bunch of compounds here, and I need their inhibition values.
ASSAY_TARGET: DNA-binding transcriptional activator DevR/DosR (Mycobacterium tuberculosis) (UniProt P9WMF9)
Sequence (P9WMF9 whole entry): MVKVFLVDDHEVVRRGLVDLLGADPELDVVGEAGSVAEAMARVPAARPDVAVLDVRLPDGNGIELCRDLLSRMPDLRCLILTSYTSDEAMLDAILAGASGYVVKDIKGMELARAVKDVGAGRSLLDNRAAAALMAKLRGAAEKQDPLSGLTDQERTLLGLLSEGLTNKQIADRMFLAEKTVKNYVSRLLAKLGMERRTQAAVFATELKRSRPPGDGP
MEASUREMENT_NOTES: Inhibition of DevR region-dependent Rv3134c promoter activity in Mycobacterium tuberculosis H37Rv at 250 uM after 48 hrs by GFP reporter gene assay
Field note: include the unit after the figure.

I have this compound here, COc1cc(NC(=O)c2cc3ccccc3o2)ccc1NC(=O)c1ccccc1Cl , and I need its recorded inhibition.
30%

I have this compound here, COc1cc(NC(=O)CCc2ccc(OCc3ccc(Cl)cc3)c(OC)c2)c(OC)cc1Cl , and I need its recorded inhibition.
50%

I have this compound here, COc1cc(NC(=O)c2ccc(-c3cc4ccccc4oc3=O)cc2)ccc1NC(=O)c1ccccc1Cl , and I need its recorded inhibition.
50%

I have this compound here, C=CCc1cc(/C=C2\NC(=O)N(c3ccccc3F)C2=O)cc(OCC)c1O , and I need its recorded inhibition.
30%
